# measured target: recombinant guanylate cyclase reporter cell line (Rattus norvegicus, UniProt P20595)
# Construct: expressed in transfected cells
# Sequence (P20595 1-619): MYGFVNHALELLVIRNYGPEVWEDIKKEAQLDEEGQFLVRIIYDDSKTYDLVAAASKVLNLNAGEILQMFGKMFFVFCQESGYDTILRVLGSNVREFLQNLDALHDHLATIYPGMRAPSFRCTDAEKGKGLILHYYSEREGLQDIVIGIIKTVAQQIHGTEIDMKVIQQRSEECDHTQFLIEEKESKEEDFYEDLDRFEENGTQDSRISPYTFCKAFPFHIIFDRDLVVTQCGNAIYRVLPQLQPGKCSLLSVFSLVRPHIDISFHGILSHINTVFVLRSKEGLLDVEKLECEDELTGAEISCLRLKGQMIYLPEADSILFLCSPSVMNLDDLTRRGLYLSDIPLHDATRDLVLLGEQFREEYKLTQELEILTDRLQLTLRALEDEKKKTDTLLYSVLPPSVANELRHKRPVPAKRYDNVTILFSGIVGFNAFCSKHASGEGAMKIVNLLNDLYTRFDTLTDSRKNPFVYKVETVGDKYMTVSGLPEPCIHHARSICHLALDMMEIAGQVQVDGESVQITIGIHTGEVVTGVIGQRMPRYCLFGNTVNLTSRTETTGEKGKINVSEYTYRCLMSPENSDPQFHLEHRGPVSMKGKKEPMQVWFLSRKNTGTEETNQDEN
# Sequence (P19686 1-690 partner): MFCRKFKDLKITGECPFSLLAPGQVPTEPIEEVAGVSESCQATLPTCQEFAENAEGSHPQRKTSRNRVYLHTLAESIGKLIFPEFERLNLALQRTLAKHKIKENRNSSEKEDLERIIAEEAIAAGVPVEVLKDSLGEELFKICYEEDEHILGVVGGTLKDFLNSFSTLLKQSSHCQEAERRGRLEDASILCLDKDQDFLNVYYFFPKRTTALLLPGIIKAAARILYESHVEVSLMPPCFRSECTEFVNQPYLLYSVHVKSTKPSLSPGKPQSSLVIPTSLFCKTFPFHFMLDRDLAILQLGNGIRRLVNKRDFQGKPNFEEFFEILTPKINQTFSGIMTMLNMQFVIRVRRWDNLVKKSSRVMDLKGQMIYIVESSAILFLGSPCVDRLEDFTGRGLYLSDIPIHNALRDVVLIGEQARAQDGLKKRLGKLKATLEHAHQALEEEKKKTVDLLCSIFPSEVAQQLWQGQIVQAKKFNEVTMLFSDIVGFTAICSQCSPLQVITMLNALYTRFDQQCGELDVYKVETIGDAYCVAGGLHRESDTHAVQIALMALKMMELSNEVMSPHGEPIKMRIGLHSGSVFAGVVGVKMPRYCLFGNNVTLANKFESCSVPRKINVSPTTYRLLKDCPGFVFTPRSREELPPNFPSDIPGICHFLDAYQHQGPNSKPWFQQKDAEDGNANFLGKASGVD
# protocol text: Effect on a recombinant guanylate cyclase reporter cell line
# Format: cell-based
# experimental parameters: MEC = minimum effective concentration; in some cases mean values from individual determinations
# Experimental: The cellular activity of the compounds according to the invention was determined using a recombinant guanylate cyclase reporter cell line, as described in F. Wunder et al., Anal. Biochem. 339, 104-112 (2005).
Counter-ions that a name gives are not always drawn.
observation type: MEC (nM)

compound="CCC(=O)N1CCC(c2ccc(-c3ccc(Cl)cc3N3CCCC(n4ncc(C(=O)O)c4C(F)(F)F)C3)cc2)CC1 (single isomer, unassigned) [Example 83, hydrochloride]" value_qualifier== recorded_result=0.3
compound="O=C(O)c1cnn(C2CCCN(c3cc(Cl)ccc3-c3ccc(N4CCN(CC(F)(F)F)CC4)cc3)C2)c1C(F)(F)F (single isomer, unassigned) [Example 15]" value_qualifier== recorded_result=0.6
compound="O=C(O)c1cnn(C2CCCN(c3cc(Cl)ccc3-c3ccc(N4CCN(CC(F)F)CC4)cc3)C2)c1C(F)(F)F (single isomer, unassigned) [Example 13]" value_qualifier== recorded_result=3.0
compound="O=C(O)c1cnn(C2CCCN(c3cc(Cl)ccc3-c3ccc(N4CCN(CCC(F)F)CC4)cc3)C2)c1C(F)(F)F (single isomer, unassigned) [Example 14, hydrochloride]" value_qualifier== recorded_result=0.3
compound="CCN1CCN(c2ccc(-c3ccc(Cl)cc3N3CCCC(n4ncc(C(=O)O)c4C(F)(F)F)C3)cc2)CC1 (single isomer, unassigned) [Example 3, hydrochloride]" value_qualifier== recorded_result=10.0
compound="O=C(O)c1cnn(C2CCCN(c3cc(Cl)ccc3-c3ccc(N4CCN(CC5(C(F)(F)F)CC5)CC4)cc3)C2)c1C(F)(F)F (single isomer, unassigned) [Example 34, hydrochloride]" value_qualifier== recorded_result=10.0
compound="O=C(O)c1cnn(C2CCCN(c3cc(Cl)ccc3-c3ccc(N4CCN(C(=O)C5CC56CC6)CC4)cc3)C2)c1C(F)(F)F (single isomer, unassigned) [Example 53]" value_qualifier== recorded_result=10.0
compound="CC(C)(C)CN1CCN(c2ccc(-c3ccc(Cl)cc3N3CCCC(n4ncc(C(=O)O)c4C(F)(F)F)C3)cc2)CC1 (single isomer, unassigned) [Example 18, hydrochloride]" value_qualifier== recorded_result=10.0
compound="O=C(O)c1cnn(C2CCCN(c3cc(Cl)ccc3-c3ccc(C4CN(CCC(F)(F)F)C4)cc3)C2)c1C(F)(F)F (single isomer, unassigned) [Example 78, hydrochloride]" value_qualifier== recorded_result=1.0
compound="O=C(O)c1cnn(C2CCCN(c3cc(Cl)ccc3-c3ccc(N4CCN(CCC(F)(F)F)CC4)cc3)C2)c1C(F)(F)F (single isomer, unassigned) [Example 17, hydrochloride]" value_qualifier=< recorded_result=0.3
compound="CCC(=O)N1CCC(c2ccc(-c3ccc(Cl)cc3N3CCCC(n4ncc(C(=O)O)c4C(F)(F)F)C3)cc2)CC1 (single isomer, unassigned) [Example 82, hydrochloride]" value_qualifier== recorded_result=0.3
compound="COCCC(=O)N1CCN(c2ccc(-c3ccc(Cl)cc3N3CCCC(n4ncc(C(=O)O)c4C(F)(F)F)C3)cc2)CC1 (single isomer, unassigned) [Example 41]" value_qualifier== recorded_result=3.0
compound="O=C(O)c1cnn(C2CCCN(c3cc(Cl)ccc3-c3ccc(N4CCN(C[C@H]5C[C@H]5F)CC4)cc3)C2)c1C(F)(F)F (single isomer, unassigned) [Example 29, hydrochloride]" value_qualifier== recorded_result=0.3
compound="CC(C)C(=O)N1CCN(c2ccc(-c3ccc(Cl)cc3N3CCCC(n4ncc(C(=O)O)c4C(F)(F)F)C3)cc2)CC1 (single isomer, unassigned) [Example 38]" value_qualifier== recorded_result=3.0
compound="CC(F)(F)CN1CCN(c2ccc(-c3ccc(Cl)cc3N3CCCC(n4ncc(C(=O)O)c4C(F)(F)F)C3)cc2)CC1 (single isomer, unassigned) [Example 11, hydrochloride]" value_qualifier== recorded_result=0.3
compound="CN1CCN(c2ccc(-c3ccc(Cl)cc3N3CCCC(n4ncc(C(=O)O)c4C(F)(F)F)C3)cc2)CC1 (single isomer, unassigned) [Example 1]" value_qualifier== recorded_result=10.0
compound="O=C(O)c1cnn(C2CCCN(c3cc(Cl)ccc3-c3ccc(N4CCN(C(=O)C5CC5)CC4)cc3)C2)c1C(F)(F)F (single isomer, unassigned) [Example 42]" value_qualifier== recorded_result=1.0
compound="O=C(O)c1cnn(C2CCCN(c3cc(Cl)ccc3-c3ccc(N4CCN(CC5CC(F)C5)CC4)cc3)C2)c1C(F)(F)F (single isomer, unassigned) [Example 22, hydrochloride]" value_qualifier== recorded_result=2.0
compound="O=C(O)c1cnn(C2CCCN(c3cc(Cl)ccc3-c3ccc(N4CCN(C(=O)OCCOC(F)(F)F)CC4)cc3)C2)c1C(F)(F)F (single isomer, unassigned) [Example 64]" value_qualifier== recorded_result=30.0
compound="CCCC(=O)N1CCN(c2ccc(-c3ccc(Cl)cc3N3CCCC(n4ncc(C(=O)O)c4C(F)(F)F)C3)cc2)CC1 (single isomer, unassigned) [Example 40]" value_qualifier== recorded_result=3.0
compound="O=C(O)c1cnn(C2CCCN(c3cc(Cl)ccc3-c3ccc(N4CCN(C(=O)OCC5CCC5)CC4)cc3)C2)c1C(F)(F)F (single isomer, unassigned) [Example 61]" value_qualifier== recorded_result=3.0
